Assay: Determination of the microsomal half-life, human liver microsomes
Settings: human, liver microsomes, pH 7.4
Counter-ions that a name gives are not always drawn.
Reported values of microsomal CLint at 0.5 μM for individual entries

In the examples that follow, each entry is paired with its recorded microsomal CLint at 0.5 μM.
O=C1c2c(cccc2N2CCN(c3ccncc3)CC2)CN1CCc1ccc2ccccc2n1 = 100 to 220 µL/min/mg
Cn1nccc1-c1ccnc2c1C(=O)N(CCc1ccc3ccccc3n1)C2 [Example 162, hydrochloride] = < 100 µL/min/mg
O=C1c2c(-c3ccncc3)ccnc2CN1CCc1nc2ccccc2s1 = < 100 µL/min/mg
Cn1ccc(-c2ccnc3c2C(=O)N(CCc2ccc4ccccc4n2)C3)c1 = 100 to 220 µL/min/mg
O=C1c2c(cccc2-c2ccncc2)CN1CCc1nc2ccccn2n1 = < 100 µL/min/mg

Which microsomal CLint at 0.5 μM reading was recorded for the compound O=C1c2c(-c3cncnc3)ccnc2CN1CCc1nc2ccccn2n1 ?
< 100 µL/min/mg

What value of microsomal CLint at 0.5 μM has been recorded for this entry: COc1ccc(N2CCOCC2)c2c1CN(CCc1ccc3ccccc3n1)C2=O
< 100 µL/min/mg

---

Test: Determination of the microsomal half-life, rat liver microsomes
Conditions: rat, liver microsomes, pH 7.4
Counter-ions that a name gives are not always drawn.
Measure Name: microsomal CLint at 0.5 μM

Some compounds with recorded microsomal CLint at 0.5 μM:
COc1ccc(N2CCN(C3CCN(C)CC3)CC2)c2c1CN(CCc1ccc3ccccc3n1)C2=O [Example 269, di-trifluoroacetate] = < 100 µL/min/mg
O=C1c2c(cccc2N2CCC3(COC3)C2)CN1CCc1ccc2ccccc2n1 = 100 to 220 µL/min/mg
O=C1c2c(cc(F)cc2-c2ccncc2)CN1CCc1ccc2ccccc2n1 = > 220 µL/min/mg
O=C1c2c(cccc2N2CCCOCC2)CN1CCc1ccc2ccccc2n1 [Example 110, hydrochloride] = 100 to 220 µL/min/mg
Cc1ccc(COc2cccc3c2C(=O)N(CCc2ccc4ccccc4n2)C3)cn1 = 100 to 220 µL/min/mg
COc1ccc(N2CCOCC2)c2c1CN(CCc1ccc3ccccc3n1)C2=O = < 100 µL/min/mg
O=C1c2c(cccc2-c2cccnc2)CN1CCc1cn2ccccc2n1 = < 100 µL/min/mg

Which microsomal CLint at 0.5 μM reading was recorded for the compound O=C1c2c(cccc2N2CCOCC2)CN1CCc1ccc2cc(F)ccc2n1 [Example 115, trifluoroacetate] ?
< 100 µL/min/mg

---

Target: UniProt:Q9Y233
pIC50: −log10 of the molar value. Counter-ions that a name gives are not always drawn.
Measure Name: pIC50

Cn1c(CCN2Cc3cccc(N4CCOCC4)c3C2=O)nc2cc(F)ccc21 [Example 262] = > 7.00
O=C1c2nccc(-c3cccnc3)c2CN1CCc1ccc2ccccc2n1 [compound 463, trifluoroacetate] = 6.70 to 7.00

What does the record list as pIC50 for O=C1c2c(N3CCC(CF)C3)ccnc2CN1CCc1nc2ccccc2s1 (stereo not shown) [compound 387] ?
> 7.00

pIC50 for O=C1c2c(cccc2N2CCS(=O)(=O)CC2)CN1CCc1nc2ccccc2[nH]1 [Example 175] ?
6.70 to 7.00

Please give the measured pIC50 for this compound: O=C1c2c(-c3cn[nH]c3)ccnc2CN1CCc1nc2ccccc2s1 [compound 538, trifluoroacetate]
> 7.00

I have this compound here, Cc1cccn2cc(CCN3Cc4nccc(-c5ccncc5)c4C3=O)nc12 [compound 496, trifluoroacetate] , and I need its recorded pIC50.
> 7.00

What value of pIC50 has been recorded for this entry: O=C1c2c(cccc2-c2cccnc2)CN1CCc1cn2ccccc2n1 [Example 235]
> 7.00

Find the recorded pIC50 belonging to O=C1c2c(C3CCOC3)ccnc2CN1CCc1ccc2ccccc2n1 (stereo not shown) [Example 309] and report it.
> 7.00

What value of pIC50 has been recorded for this entry: O=C1c2c(cccc2-c2cccc(F)c2)CN1CCc1ccc2ccccc2n1 [Example 27]
6.70 to 7.00

---

Structures can show the parent of a compound that is named as a salt.
Parameter IC50, tested on PDE10A (human) (Homo sapiens), listed per item.
Sequence (Q9Y233 whole entry): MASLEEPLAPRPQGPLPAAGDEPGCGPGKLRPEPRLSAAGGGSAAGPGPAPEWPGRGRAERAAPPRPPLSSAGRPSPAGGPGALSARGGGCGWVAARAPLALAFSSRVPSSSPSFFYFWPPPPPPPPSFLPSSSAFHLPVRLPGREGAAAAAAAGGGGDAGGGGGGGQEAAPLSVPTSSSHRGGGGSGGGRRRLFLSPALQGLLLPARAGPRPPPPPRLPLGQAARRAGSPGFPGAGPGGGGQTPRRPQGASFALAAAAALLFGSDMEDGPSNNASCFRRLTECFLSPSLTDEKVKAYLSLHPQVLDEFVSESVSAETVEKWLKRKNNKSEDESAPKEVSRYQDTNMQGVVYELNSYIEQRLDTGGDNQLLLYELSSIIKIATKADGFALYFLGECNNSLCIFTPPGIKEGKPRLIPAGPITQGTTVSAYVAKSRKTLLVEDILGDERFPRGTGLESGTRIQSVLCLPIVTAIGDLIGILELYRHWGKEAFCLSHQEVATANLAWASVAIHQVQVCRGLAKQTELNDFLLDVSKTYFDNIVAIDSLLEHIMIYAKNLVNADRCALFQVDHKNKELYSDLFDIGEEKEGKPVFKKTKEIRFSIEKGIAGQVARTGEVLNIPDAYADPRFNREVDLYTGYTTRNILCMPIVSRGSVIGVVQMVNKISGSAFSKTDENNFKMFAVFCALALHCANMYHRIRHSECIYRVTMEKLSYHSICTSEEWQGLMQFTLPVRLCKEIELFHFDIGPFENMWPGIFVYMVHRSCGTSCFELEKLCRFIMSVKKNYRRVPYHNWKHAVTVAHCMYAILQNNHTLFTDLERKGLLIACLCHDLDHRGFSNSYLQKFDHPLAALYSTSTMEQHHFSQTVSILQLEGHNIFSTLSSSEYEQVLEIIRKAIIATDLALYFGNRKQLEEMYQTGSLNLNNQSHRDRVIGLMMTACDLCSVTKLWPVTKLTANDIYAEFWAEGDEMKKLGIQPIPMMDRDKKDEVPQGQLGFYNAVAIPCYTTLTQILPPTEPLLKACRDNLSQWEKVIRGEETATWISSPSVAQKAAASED

O=C1c2c(cccc2N2CCOCC2)CN1CCc1cc(Cl)c2ccccc2n1 [Example 117, trifluoroacetate] = 100 to 200 nM
COc1ccc(-c2cncnc2)c2c1CN(CCc1cn3ccccc3n1)C2=O [Example 217, trifluoroacetate] = < 100 nM
COc1ccc(-c2ccnn2C)c2c1CN(CCc1ccc3ccccc3n1)C2=O [Example 210] = < 100 nM
O=C1c2c(-c3cncnc3)ccnc2CN1CCc1nc2ccccn2n1 [Example 215] = 200 to 500 nM

Request: IC50, test system PDE10A (human) (Homo sapiens), entry Cc1cnc(CCN2Cc3nccc(-c4ccncc4)c3C2=O)c(C)c1 [compound 473]
100 to 200 nM

Find IC50 (PDE10A (human) (Homo sapiens)) for the entry O=C1c2c(cccc2-c2ccc3[nH]c(=O)[nH]c3c2)CN1CCc1ccc2ccccc2n1 [Example 9, trifluoroacetate]
< 100 nM

For the record COc1ccc(-c2cccnc2)c2c1CN(CCc1cn3ccccc3n1)C2=O [Example 218, trifluoroacetate] , what value of IC50 is listed for PDE10A (human) (Homo sapiens)?
< 100 nM

---

Assay: Determination of the microsomal half-life, rat liver microsomes
Settings: rat, liver microsomes, pH 7.4
Measure Name: microsomal CLint at 0.5 μM

Here's what some known entries look like.
O=C1c2c(NC3COC3)ccnc2CN1CCc1cn2ccccc2n1 = < 100 µL/min/mg
O=C1c2c(-c3cccnc3)ccnc2CN1CCc1ccc2ccccc2n1 = 100 to 220 µL/min/mg
O=C1c2c(-c3cncnc3)ccc(F)c2CN1CCc1cn2ccccc2n1 = < 100 µL/min/mg
O=C1c2c(N3CCOCC3)ccnc2CN1CCc1ccc(-c2ccccc2)cn1 = > 220 µL/min/mg
Cc1ncccc1-c1cccc2c1C(=O)N(CCc1cn3ccccc3n1)C2 = 100 to 220 µL/min/mg

// returns reported microsomal CLint at 0.5 μM for input O=C1c2c(N3CCC(CF)C3)ccnc2CN1CCc1nc2ccccc2s1 (stereo not shown)
> 220 µL/min/mg

Which microsomal CLint at 0.5 μM is reported for this compound? O=C1c2c(-c3cncnc3)ccnc2CN1CCc1cn2ccccc2n1
< 100 µL/min/mg

State the recorded microsomal CLint at 0.5 μM for this entry: Cc1ccc2c(c1)nc(CCN1Cc3nccc(-c4cccnc4)c3C1=O)n2C
< 100 µL/min/mg

Need microsomal CLint at 0.5 μM of O=C1Cc2ccc(-c3cccc4c3C(=O)N(CCc3ccc5ccccc5n3)C4)cc2N1 , thanks.
100 to 220 µL/min/mg

Fill in the blank: the reported microsomal CLint at 0.5 μM of O=C1c2c(-c3cn[nH]c3)ccnc2CN1CCc1cn2ccccc2n1 is ____.
100 to 220 µL/min/mg

// lookup microsomal CLint at 0.5 μM for [2H]c1nc2c(c(N3C([2H])([2H])C([2H])([2H])OC([2H])([2H])C3([2H])[2H])c1[2H])C(=O)N(C([2H])([2H])Cc1nc3c([2H])c([2H])c([2H])c([2H])c3c([2H])c1[2H])C2([2H])[2H]
> 220 µL/min/mg

Entry COc1ccnc2c1C(=O)N(CCc1ccc3ccccc3n1)C2 has what microsomal CLint at 0.5 μM?
< 100 µL/min/mg

---

Assay: Determination of the microsomal half-life, human liver microsomes
Details: human, liver microsomes, pH 7.4
Where a name gives a salt, the structure may show the parent alone.
Measure Name: microsomal CLint at 0.5 μM

COc1ccc(-c2cccnc2)c2c1CN(CCc1ccc3ccccc3n1)C2=O [Example 185, trifluoroacetate] = > 220 µL/min/mg

Any idea what microsomal CLint at 0.5 μM was measured for O=C1c2c(N3CCOCC3)ccnc2CN1CCc1cnc2ccccc2n1 [compound 495, trifluoroacetate] ?
< 100 µL/min/mg

Value lookup for microsomal CLint at 0.5 μM; key = O=C1c2c(-c3ccncc3)ccnc2CN1CCc1ccc2ccccc2n1
< 100 µL/min/mg

Find the recorded microsomal CLint at 0.5 μM belonging to O=C1c2c(N3CCOCC3)ccc(F)c2CN1CCc1cn2ccccc2n1 and report it.
< 100 µL/min/mg

# input compound: O=C1c2c(N3CCC(CF)C3)ccnc2CN1CCc1nc2ccccc2s1 (stereo not drawn) ; wanted: its microsomal CLint at 0.5 μM
100 to 220 µL/min/mg

Fill in the blank: the reported microsomal CLint at 0.5 μM of O=C1c2c(-c3ccncc3)ccnc2CN1CCc1ccc2ncccc2n1 is ____.
< 100 µL/min/mg

So what does the record say about microsomal CLint at 0.5 μM for O=C1c2c(-c3ccncc3)ccnc2CN1CCc1nc2ccc(F)cc2s1 ?
100 to 220 µL/min/mg

Which microsomal CLint at 0.5 μM is reported for this compound? CN(C)CC1CN(c2cccc3c2C(=O)N(CCc2ccc4ccccc4n2)C3)CCO1 (stereo not drawn) [Example 229, trifluoroacetate]
< 100 µL/min/mg

// query microsomal CLint at 0.5 μM value for entry O=C1c2c(-c3cncnc3)ccnc2CN1CCc1cn2ccccc2n1
< 100 µL/min/mg
